Where do these numbers come from? They come from patent US20230091225A1.

Overview of reported Dmax across a group of compounds:
measured.target: androgen receptor (AR) (Homo sapiens)
Sequence (P10275 whole entry): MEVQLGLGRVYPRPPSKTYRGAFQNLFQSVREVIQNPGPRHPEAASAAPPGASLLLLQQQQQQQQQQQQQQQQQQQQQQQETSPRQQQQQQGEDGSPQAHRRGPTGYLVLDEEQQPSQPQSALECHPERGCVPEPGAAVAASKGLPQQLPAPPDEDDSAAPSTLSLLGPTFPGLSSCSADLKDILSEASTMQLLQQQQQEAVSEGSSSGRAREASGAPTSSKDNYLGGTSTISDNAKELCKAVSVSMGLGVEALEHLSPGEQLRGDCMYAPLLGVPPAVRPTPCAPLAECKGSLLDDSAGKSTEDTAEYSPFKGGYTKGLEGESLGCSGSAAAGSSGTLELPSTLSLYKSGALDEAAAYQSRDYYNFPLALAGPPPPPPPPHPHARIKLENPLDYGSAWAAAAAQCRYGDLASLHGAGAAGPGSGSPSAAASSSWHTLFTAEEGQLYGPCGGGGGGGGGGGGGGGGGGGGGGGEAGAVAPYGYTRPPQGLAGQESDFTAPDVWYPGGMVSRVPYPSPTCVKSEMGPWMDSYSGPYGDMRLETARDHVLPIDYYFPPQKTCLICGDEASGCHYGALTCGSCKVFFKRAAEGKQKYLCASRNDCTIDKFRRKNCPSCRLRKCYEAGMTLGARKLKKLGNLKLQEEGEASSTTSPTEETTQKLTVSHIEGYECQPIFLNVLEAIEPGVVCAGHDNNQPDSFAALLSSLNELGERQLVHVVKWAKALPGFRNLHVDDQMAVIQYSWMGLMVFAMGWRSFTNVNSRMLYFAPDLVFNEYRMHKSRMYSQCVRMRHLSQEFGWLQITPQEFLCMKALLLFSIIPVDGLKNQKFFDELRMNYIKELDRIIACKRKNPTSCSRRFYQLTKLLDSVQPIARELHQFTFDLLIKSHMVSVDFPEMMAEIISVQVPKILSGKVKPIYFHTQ
assay.comment: Degradation of androgen receptor (AR) protein in VCaP cells by ELISA
Assay type: cell-based
condition.notes: VCaP

compound: N#Cc1ccc(O[C@H]2CC[C@H](NC(=O)c3ncc(N4CC5(CCN(C6CCN(c7ccc8c(c7)C(=O)N(C7CCC(=O)NC7=O)C8=O)CC6)CC5)C4)cn3)CC2)cc1Cl (some centres unmarked)
measured.target: androgen receptor (AR) (Homo sapiens)
Dmax: < 40%

Consider the compound shown here: CCOc1cc(O[C@H]2CC[C@H](NC(=O)c3ccc(N4CCC(CN5CCC6(CC5)CN(c5ccc7c(c5)C(=O)N(C5CCC(=O)NC5=O)C7=O)C6)CC4)nn3)CC2)ccc1C#N (some centres unmarked) What is its recorded Dmax? > 80%

Consider the compound shown here: N#Cc1ccc(OC2CCC(NC(=O)c3cnc(N4C[C@H]5CC[C@@H](C4)N5C[C@H]4[C@@H]5CN(c6cc7c(cc6F)C(=O)N(C6CCC(=O)NC6=O)C7=O)C[C@@H]54)cn3)CC2)cc1Cl (some centres unmarked) What is its recorded Dmax? 60 to 80%

Consider the compound shown here: Cc1cc(O[C@H]2C(C)(C)[C@H](N3Cc4nc(C#C[C@H]5CC[C@H](N6CCN(c7ccc8c(c7)C(=O)N(C7CCC(=O)NC7=O)C8=O)CC6)CC5)ccc4C3=O)C2(C)C)ccc1C#N (some centres unmarked) What is its recorded Dmax? > 80%

Consider the compound shown here: N#Cc1ccc(O[C@H]2CC[C@H](NC(=O)c3ccc(N4CCC(CN5CCC6(CC5)CN(c5ccc7c(c5)C(=O)N(C5CCC(=O)NC5=O)C7=O)C6)CC4)nn3)CC2)cc1 (some centres unmarked) What is its recorded Dmax? 60 to 80%
